- System: P. aeruginosa ATCC 27853
- Assay method text: Broth microdilution MIC (NCCLS)
- Type: cell-based
- Experimental conditions: Pseudomonas aeruginosa, ATCC27853, Mueller-Hinton Broth, 24 h at 35 °C

>  <Compound>
N=C(N)NCCSCc1ncccc1SC1=C(C(=O)O)N2C(=O)[C@@H](NC(=O)/C(=N\O)c3nsc(N)n3)[C@H]2SC1 [Cmpd 2-R]

>  <Test system>
P. aeruginosa ATCC 27853

>  <MIC>
> 32 µg/mL

$$$$
>  <Compound>
C[C@@H](O)[C@H]1C(=O)N2C(C(=O)O)=C(SCCN=CN)C[C@H]12 [Imipenem, reference compound]

>  <Test system>
P. aeruginosa ATCC 27853

>  <MIC>
1 µg/mL

$$$$
>  <Compound>
N=C(N)NCCSCc1ncccc1SC1=C(C(=O)O)N2C(=O)[C@@H](NC(=O)/C(=N\O)c3nc(N)sc3Cl)[C@H]2SC1 [Cmpd 2-S]

>  <Test system>
P. aeruginosa ATCC 27853

>  <MIC>
> 32 µg/mL

$$$$
>  <Compound>
NCCSCc1ccncc1SC1=C(C(=O)O)N2C(=O)[C@@H](NC(=O)/C(=N\O)c3nc(N)sc3Cl)[C@H]2SC1 [Cmpd 3]

>  <Test system>
P. aeruginosa ATCC 27853

>  <MIC>
32 µg/mL

$$$$
>  <Compound>
NCCSCc1ncccc1SC1=C(C(=O)O)N2C(=O)[C@@H](NC(=O)/C(=N\O)c3nsc(N)n3)[C@H]2SC1 [Cmpd 2]

>  <Test system>
P. aeruginosa ATCC 27853

>  <MIC>
> 32 µg/mL

$$$$
>  <Compound>
NCCSCc1ccncc1SC1=C(C(=O)O)N2C(=O)[C@@H](NC(=O)/C(=N\O)c3nsc(N)n3)[C@H]2SC1 [Cmpd 4]

>  <Test system>
P. aeruginosa ATCC 27853

>  <MIC>
> 32 µg/mL

$$$$
>  <Compound>
NCCSCc1ncccc1SC1=C(C(=O)O)N2C(=O)[C@@H](NC(=O)/C(=N\O)c3nc(N)sc3Cl)[C@H]2SC1 [Cmpd 1]

>  <Test system>
P. aeruginosa ATCC 27853

>  <MIC>
32 µg/mL

$$$$
